System: NCI-H522
Experiment: relative viability (nuclei count vs DMSO), 5 days (fraction); higher = more cells survive
Conditions: first compound 0.08 µM
Listed here: items and their measured relative viability.

molecule="Cc1cnc(-c2cnc(NCCNc3ccc(C#N)cn3)nc2-c2ccc(Cl)cc2Cl)[nH]1 + Cc1nc(Nc2ncc(C(=O)Nc3c(C)cccc3Cl)s2)cc(N2CCN(CCO)CC2)n1 [Dasatinib] (partner 0.075 µM)" assay_value=0.845

Req: Need relative viability, item O=c1[nH]c2ccccc2n1C1CCN(CCCC(c2ccc(F)cc2)c2ccc(F)cc2)CC1 [Pimozide] + Nc1nc2[nH]cc(CCc3ccc(C(=O)N[C@@H](CCC(=O)O)C(=O)O)cc3)c2c(=O)[nH]1 [Pemetrexed] (partner 0.2 µM)
Resp: 1.04

Req: Need relative viability, item O=c1[nH]c2ccccc2n1C1CCN(CCCC(c2ccc(F)cc2)c2ccc(F)cc2)CC1 [Pimozide] + Cc1cc(Nc2cc(N3CCN(C)CC3)nc(Sc3ccc(NC(=O)C4CC4)cc3)n2)n[nH]1 [Tozasertib] (partner 0.1 µM)
Resp: 0.509

Req: Need relative viability, item Cc1cnc(-c2cnc(NCCNc3ccc(C#N)cn3)nc2-c2ccc(Cl)cc2Cl)[nH]1 + Nc1nc2[nH]cc(CCc3ccc(C(=O)N[C@@H](CCC(=O)O)C(=O)O)cc3)c2c(=O)[nH]1 [Pemetrexed] (partner 0.2 µM)
Resp: 1.08

###

Listed here: items and their measured relative viability.
System: NCI-H2126
Experiment: relative viability (nuclei count vs DMSO), 5 days (fraction); higher = more cells survive
Details: first compound 0.01581 µM
Please give only the number in your answer, with no unit.

Req: Need relative viability, item Nc1ccn([C@@H]2O[C@H](CO)[C@@H](O)[C@@H]2O)c(=O)n1 [Cytarabine] + C[C@@H](Oc1cc(-c2cnn(C3CCNCC3)c2)cnc1N)c1c(Cl)ccc(F)c1Cl [Crizotinib] (partner 1 µM)
Resp: 1.01

Req: Need relative viability, item COc1cc2nccc(Oc3ccc(NC(=O)Nc4cc(C)on4)c(Cl)c3)c2cc1OC [Tivozanib] + COc1cccc2cc(-c3nc([C@H]4CC[C@H](C(=O)O)CC4)n4ncnc(N)c34)[nH]c12 [OSI-027] (partner 0.5 µM)
Resp: 0.701

Req: Need relative viability, item COc1cc2nccc(Oc3ccc(NC(=O)Nc4cc(C)on4)c(Cl)c3)c2cc1OC [Tivozanib] + Nc1ncn([C@H]2C[C@H](O)[C@@H](CO)O2)c(=O)n1 [Decitabine] (partner 2 µM)
Resp: 0.584

Req: Need relative viability, item COc1cc2nccc(Oc3ccc(NC(=O)Nc4cc(C)on4)c(Cl)c3)c2cc1OC [Tivozanib] + Nc1nc2[nH]cc(CCc3ccc(C(=O)N[C@@H](CCC(=O)O)C(=O)O)cc3)c2c(=O)[nH]1 [Pemetrexed] (partner 0.2 µM)
Resp: 0.684

###

System: CAL-12T
Assay: relative viability (nuclei count vs DMSO), 5 days (fraction); higher = more cells survive
Conditions: first compound 0.253 µM
Listed here: items and their measured relative viability.

Sample records with relative viability:
compound="O=c1[nH]c2ccccc2n1C1CCN(CCCC(c2ccc(F)cc2)c2ccc(F)cc2)CC1 [Pimozide] + Nc1nc2[nH]cc(CCc3ccc(C(=O)N[C@@H](CCC(=O)O)C(=O)O)cc3)c2c(=O)[nH]1 [Pemetrexed] (partner 0.2 µM)" parameter_measured="relative viability" assay_value=1.22
compound="O=c1[nH]c2ccccc2n1C1CCN(CCCC(c2ccc(F)cc2)c2ccc(F)cc2)CC1 [Pimozide] + C[C@@H](Oc1cc(-c2cnn(C3CCNCC3)c2)cnc1N)c1c(Cl)ccc(F)c1Cl [Crizotinib] (partner 1 µM)" parameter_measured="relative viability" assay_value=0.644
compound="Cc1cnc(-c2cnc(NCCNc3ccc(C#N)cn3)nc2-c2ccc(Cl)cc2Cl)[nH]1 + CC(=O)Nc1cccc(-n2c(=O)n(C3CC3)c(=O)c3c(Nc4ccc(I)cc4F)n(C)c(=O)c(C)c32)c1 [Trametinib] (partner 0.02 µM)" parameter_measured="relative viability" assay_value=0.306
compound="Cc1cnc(-c2cnc(NCCNc3ccc(C#N)cn3)nc2-c2ccc(Cl)cc2Cl)[nH]1 + NC(=O)Nc1cc(-c2cccc(F)c2)sc1C(=O)N[C@H]1CCCNC1 [AZD7762] (partner 0.2 µM)" parameter_measured="relative viability" assay_value=0.567
compound="O=c1[nH]c2ccccc2n1C1CCN(CCCC(c2ccc(F)cc2)c2ccc(F)cc2)CC1 [Pimozide] + CC(=O)Nc1cccc(-n2c(=O)n(C3CC3)c(=O)c3c(Nc4ccc(I)cc4F)n(C)c(=O)c(C)c32)c1 [Trametinib] (partner 0.02 µM)" parameter_measured="relative viability" assay_value=0.291

Req: Need relative viability, item O=c1[nH]c2ccccc2n1C1CCN(CCCC(c2ccc(F)cc2)c2ccc(F)cc2)CC1 [Pimozide] + CCNC(=O)c1noc(-c2cc(C(C)C)c(O)cc2O)c1-c1ccc(CN2CCOCC2)cc1 [Luminespib] (partner 0.01 µM)
Resp: 0.408

Req: Need relative viability, item O=c1[nH]c2ccccc2n1C1CCN(CCCC(c2ccc(F)cc2)c2ccc(F)cc2)CC1 [Pimozide] + C[C@]1(O)C[C@@H](c2nc(-c3ccc4ccc(-c5ccccc5)nc4c3)c3c(N)nccn32)C1 [Linsitinib] (partner 1 µM)
Resp: 0.803

Req: Need relative viability, item Cc1cnc(-c2cnc(NCCNc3ccc(C#N)cn3)nc2-c2ccc(Cl)cc2Cl)[nH]1 + CC1(C)CCC(c2ccc(Cl)cc2)=C(CN2CCN(c3ccc(C(=O)NS(=O)(=O)c4ccc(N[C@H](CCN5CCOCC5)CSc5ccccc5)c(S(=O)(=O)C(F)(F)F)c4)cc3)CC2)C1 [Navitoclax] (partner 0.5 µM)
Resp: 1.15

Req: Need relative viability, item Cc1cnc(-c2cnc(NCCNc3ccc(C#N)cn3)nc2-c2ccc(Cl)cc2Cl)[nH]1 + O=C(CCCCCCC(=O)Nc1ccccc1)NO [Vorinostat] (partner 1 µM)
Resp: 0.702

Req: Need relative viability, item Cc1cnc(-c2cnc(NCCNc3ccc(C#N)cn3)nc2-c2ccc(Cl)cc2Cl)[nH]1 + N=C(N)NC(=N)NCCc1ccccc1 [Phenformin] (partner 250 µM)
Resp: 0.511

Req: Need relative viability, item O=c1[nH]c2ccccc2n1C1CCN(CCCC(c2ccc(F)cc2)c2ccc(F)cc2)CC1 [Pimozide] + Cc1nc(Nc2ncc(C(=O)Nc3c(C)cccc3Cl)s2)cc(N2CCN(CCO)CC2)n1 [Dasatinib] (partner 0.075 µM)
Resp: 0.404

###

System: NCI-H596
Assay: relative viability (nuclei count vs DMSO), 5 days (fraction); higher = more cells survive
Conditions: first compound 15.81 µM
Parameter measured: relative viability

compound="O=C(O)CCCCC(CCSCc1ccccc1)SCc1ccccc1 (centres undefined) [CPI-613] + CCNC(=O)c1noc(-c2cc(C(C)C)c(O)cc2O)c1-c1ccc(CN2CCOCC2)cc1 [Luminespib] (partner 0.01 µM)" assay_value=0.955
compound="O=C(O)CCCCC(CCSCc1ccccc1)SCc1ccccc1 (centres undefined) [CPI-613] + CS(=O)(=O)CCNCc1ccc(-c2ccc3ncnc(Nc4ccc(OCc5cccc(F)c5)c(Cl)c4)c3c2)o1 [Lapatinib] (partner 2 µM)" assay_value=1.05
compound="O=C(O)CCCCC(CCSCc1ccccc1)SCc1ccccc1 (centres undefined) [CPI-613] + Cc1cc(Nc2cc(N3CCN(C)CC3)nc(Sc3ccc(NC(=O)C4CC4)cc3)n2)n[nH]1 [Tozasertib] (partner 0.1 µM)" assay_value=0.923

Consider now this further compound.
Req: Need relative viability, item O=C(O)CCCCC(CCSCc1ccccc1)SCc1ccccc1 (centres undefined) [CPI-613] + Cc1nc(NC(=O)N2CCC[C@H]2C(N)=O)sc1-c1ccnc(C(C)(C)C(F)(F)F)c1 [Alpelisib] (partner 2 µM)
Resp: 0.496

###

Listed here: items and their measured relative viability.
Tested on: NCI-H1792
Test: relative viability (nuclei count vs DMSO), 5 days (fraction); higher = more cells survive
Conditions: first compound 0.08 µM

compound="Cc1cnc(-c2cnc(NCCNc3ccc(C#N)cn3)nc2-c2ccc(Cl)cc2Cl)[nH]1 + CS(=O)(=O)CCNCc1ccc(-c2ccc3ncnc(Nc4ccc(OCc5cccc(F)c5)c(Cl)c4)c3c2)o1 [Lapatinib] (partner 2 µM)" target_system=NCI-H1792 assay_value=0.927
compound="O=c1[nH]c2ccccc2n1C1CCN(CCCC(c2ccc(F)cc2)c2ccc(F)cc2)CC1 [Pimozide] + C[C@]1(O)C[C@@H](c2nc(-c3ccc4ccc(-c5ccccc5)nc4c3)c3c(N)nccn32)C1 [Linsitinib] (partner 1 µM)" target_system=NCI-H1792 assay_value=0.524
compound="Cc1cnc(-c2cnc(NCCNc3ccc(C#N)cn3)nc2-c2ccc(Cl)cc2Cl)[nH]1 + Nc1ncn([C@H]2C[C@H](O)[C@@H](CO)O2)c(=O)n1 [Decitabine] (partner 2 µM)" target_system=NCI-H1792 assay_value=0.564

Req: Need relative viability, item O=c1[nH]c2ccccc2n1C1CCN(CCCC(c2ccc(F)cc2)c2ccc(F)cc2)CC1 [Pimozide] + CS(=O)(=O)CCNCc1ccc(-c2ccc3ncnc(Nc4ccc(OCc5cccc(F)c5)c(Cl)c4)c3c2)o1 [Lapatinib] (partner 2 µM)
Resp: 0.888

Req: Need relative viability, item O=c1[nH]c2ccccc2n1C1CCN(CCCC(c2ccc(F)cc2)c2ccc(F)cc2)CC1 [Pimozide] + CC(=O)c1c(C)c2cnc(Nc3ccc(N4CCNCC4)cn3)nc2n(C2CCCC2)c1=O [Palbociclib] (partner 0.5 µM)
Resp: 0.665

Req: Need relative viability, item O=c1[nH]c2ccccc2n1C1CCN(CCCC(c2ccc(F)cc2)c2ccc(F)cc2)CC1 [Pimozide] + CS(=O)(=O)N1CCN(Cc2cc3nc(-c4cccc5[nH]ncc45)nc(N4CCOCC4)c3s2)CC1 [Pictilisib] (partner 1 µM)
Resp: 0.274

Req: Need relative viability, item Cc1cnc(-c2cnc(NCCNc3ccc(C#N)cn3)nc2-c2ccc(Cl)cc2Cl)[nH]1 + COc1cccc2cc(-c3nc([C@H]4CC[C@H](C(=O)O)CC4)n4ncnc(N)c34)[nH]c12 [OSI-027] (partner 0.5 µM)
Resp: 0.866

Req: Need relative viability, item Cc1cnc(-c2cnc(NCCNc3ccc(C#N)cn3)nc2-c2ccc(Cl)cc2Cl)[nH]1 + CC(=O)Nc1cccc(-n2c(=O)n(C3CC3)c(=O)c3c(Nc4ccc(I)cc4F)n(C)c(=O)c(C)c32)c1 [Trametinib] (partner 0.02 µM)
Resp: 0.525

Req: Need relative viability, item O=c1[nH]c2ccccc2n1C1CCN(CCCC(c2ccc(F)cc2)c2ccc(F)cc2)CC1 [Pimozide] + COc1cccc2cc(-c3nc([C@H]4CC[C@H](C(=O)O)CC4)n4ncnc(N)c34)[nH]c12 [OSI-027] (partner 0.5 µM)
Resp: 0.758

Req: Need relative viability, item Cc1cnc(-c2cnc(NCCNc3ccc(C#N)cn3)nc2-c2ccc(Cl)cc2Cl)[nH]1 + CC(C)C[C@H](NC(=O)[C@H](Cc1ccccc1)NC(=O)c1cnccn1)B(O)O [Bortezomib] (partner 0.002 µM)
Resp: 0.89
